System: SK-MEL-2 melanoma
Assay: NCI tumour cell line growth inhibition, 48 h
Where a SMILES comes first, the peptide text is derived from it. The star is where a group is joined. Boc = CC(C)(C)OC(=O)*
The entries below come with measured TGI values attached.

Take a look at these entries with their results.
# compound, endpoint label, readout value
rows = [
    ("[N-]=[N+]=CC(=O)OC1Cc2ccccc2C1", "TGI", "> 100 µM"),
    ("CN(C)C(=O)/C=C/c1c[nH]c(=O)[nH]c1=O", "TGI", "> 500 µM"),
    ("Cn1c2c(c3ccccc31)CCN1C(=O)CN(C(=O)C3CCCCC3)CC21 (configuration not stated)", "TGI", "> 100 µM"),
    ("O=C(N(O)c1ccccc1Cl)C(O)(c1ccccc1)c1ccccc1", "TGI", "> 100 µM"),
    ("C[N+](C)(C)CC1CCC/C1=N\\OC(=O)c1ccccc1 (configuration not stated)", "TGI", "> 100 µM"),
    ("O=c1c2ncn(C3CCCO3)c2n(-c2ccccc2)c(=S)n1-c1ccccc1 (configuration not stated)", "TGI", "> 100 µM"),
]

Provide TGI, recorded with SK-MEL-2 melanoma, of COC(=O)C(C)NC(=O)C(CCSC)NC(=O)C(Cc1ccccc1)NC(=O)OC(C)(C)C (stereo not drawn) (Boc-Phe-Met-Ala-OMe; configuration not given here)
> 100 µM

Report TGI from SK-MEL-2 melanoma testing of `CC(=O)NNc1nc(-c2ccc([N+](=O)[O-])cc2)c(C#N)c(=O)n1C`
> 100 µM

Fetch value of TGI on SK-MEL-2 melanoma for `CC(=O)c1c(O)ccc2c1c1c(n2C)C(=O)c2ccccc2C1=O` .
> 100 µM

Given `COC(=O)[C@@]1(C)/C(=N/NS(=O)(=O)c2ccc(C)cc2)CCC[C@@H]1C` , report its TGI on SK-MEL-2 melanoma.
> 100 µM

Give TGI only, for C=C(C)C1CCC2(C)CC1c1c(c(C)cc3c1[nH]c1ccccc13)O2 (configuration not stated) , using SK-MEL-2 melanoma data.
> 25 µM

Provide TGI, recorded with SK-MEL-2 melanoma, of `O=c1oc2c/c(=C\c3ccc([N+](=O)[O-])cc3)c(=O)c3cccc1c3-2`
> 100 µM
